Assay: Confirmation screen for delayed death inhibitors of the malarial parasite plastid, 96 hour incubation; further: nearly all actives have a fitted effect of over 60% in size
Settings: P. falciparum luciferase growth in erythrocytes; series mostly up to 28.7 µM
Out of some 2,300 compounds screened, about 1,400 (61%) were called active. About 29% were inconclusive and are not listed. The call rests on the fitted dose curve; in most records, active means well fitted inhibition curve with a large enough effect; inconclusive means small, poorly fitted or top-dose-only effect, or effect the other way; inactive means no such curve, though single readings can be large or run the other way. The set was probably picked from earlier hits. The list shows a part of the results.
# valid calls are active, inactive; nothing else

# example entries with known answers
Cc1ccc(Nc2cc(C)c3ccc(O)cc3n2)cc1C
active
O=C(CCl)Nc1cccc(S(=O)(=O)NC2=NCCC2)c1
active
COC(=O)c1cc(=O)n(Cc2cccs2)c(=Nc2ccccc2)s1
inactive
Cc1ccccc1C1=NC(C(F)(F)F)(C(F)(F)F)c2c(n(-c3ccc(F)cc3)c(=O)[nH]c2=O)N1
active

Please indicate how the test categorized "COc1ccc([C@@]2(C(C)C)ON(c3ccccc3C(F)(F)F)C2=O)cc1" .
active
